Below, each of the variants is paired with its reported protein stability index value.
B1: FAM164A (parent)
chain: YDPDYIQCPYCQRRFNENAADRHI

- Variants of: B1
- Test Details: protein stability index of a GFP-peptide fusion (GPS, HEK-293T) (PSI 1-6); higher = more stable;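 also: lentivirally expressed fusions sorted by FACS into six bins by GFP to DsRed ratio, PSI derived from sequencing read proportions per bin multiplied by bin number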
- Recorded Conditions: c terminus: a fixed tail appended

| Mutation String | protein stability index |
| --- | --- |
| P3M | 4.4 |
| C8E | 4.37 |
| R14E | 3.88 |
| R22L | 4.08 |
| P3A | 4.57 |
| P3N | 4.46 |
| D21H | 3.93 |
| R22W | 3.15 |
| C8T | 4.23 |
| I6G | 3.29 |
| D21W | 3.51 |
| R22M | 4.48 |
| R14T | 4.45 |
| A19C | 4.42 |
| I6P | 3.37 |
| R22K | 4.51 |
| R22C | 4.43 |
| Y10V | 3.49 |
| D2I | 2.38 |
| R22E | 4.47 |
| D4R | 3.53 |
| Q7E | 3.87 |
| Y5C | 4.01 |
| C11N | 4.36 |
| D21M | 3.94 |
| C8Q | 3.7 |
| R14V | 4.67 |
| Y10P | 3.72 |
| F15M | 3.66 |
| H23E | 5.08 |
| R14Q | 4.24 |
| P9E | 3.11 |
| R13Q | 3.75 |
| C11V | 3.57 |
| H23C | 4.54 |
| D4Q | 4.42 |
| D4I | 4.5 |
| Y5G | 4.14 |
| N16Y | 4.94 |
| N18S | 4.28 |
| Y5Q | 4.12 |
| I24M | 4.03 |
| C11K | 3.57 |
| A19S | 4.59 |
| E17N | 5.01 |
| C8M | 3.63 |
